- subject of test: T1, Krimper eTud2 (residues 562-746) (Drosophila melanogaster, UniProt A1ZAC4 562-746)
- T1 chain: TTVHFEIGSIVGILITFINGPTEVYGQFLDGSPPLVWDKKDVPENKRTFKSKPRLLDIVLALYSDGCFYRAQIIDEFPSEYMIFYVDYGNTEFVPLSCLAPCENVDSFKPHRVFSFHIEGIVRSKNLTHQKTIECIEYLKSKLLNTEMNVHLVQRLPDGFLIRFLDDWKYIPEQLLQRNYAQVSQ
- measurement notes: ITC; R15me2
Where no end group is shown, it is not given here.
measure: pKd
Friendly reminder that pKd comes from taking -log10 of the concentration in mol/L.

Would you kindly share the measured pKd for NPVIARGRGRGRK (also: symmetric dimethylarginine at R15) [Aub-R15me2 peptide] ?
5.08
